# Experimental Target: Peroxisome proliferator-activated receptor gamma (Homo sapiens)
# Assay Comment: qHTS assay to identify small molecule antagonists of the peroxisome proliferator-activated receptor gamma (PPARg) signaling pathway (AID 743191); also: nearly all actives have a fitted effect of over 30% in size
# Measurement Conditions: HEK293H PPARg-UAS-bla, beta-lactamase ratio, antagonist, 17 h; series mostly up to 62.6 µM
Results filed as inconclusive are left out. Active and inactive are the calls of the source. Calls follow the shape of the full dose curve.
Observable: outcome

Reference set, count: 8
>  <Molecule>
COc1ccc2c(c1OC)CN1CCc3cc4c(cc3C1C2)OCO4 (stereo not drawn)

>  <Result>
inactive

$$$$
>  <Molecule>
Nc1ccccc1Cl

>  <Result>
inactive

$$$$
>  <Molecule>
O=CNC(N1CCN(C(NC=O)C(Cl)(Cl)Cl)CC1)C(Cl)(Cl)Cl (stereo not drawn)

>  <Result>
inactive

$$$$
>  <Molecule>
O=[N+]([O-])c1ccc2c3c(cccc13)CC2

>  <Result>
inactive

$$$$
>  <Molecule>
CC(C(O)c1ccccc1)N(C)C/C=C/c1ccccc1 (stereo not drawn)

>  <Result>
inactive

$$$$
>  <Molecule>
CC(C)COP(=O)(OCC(C)C)OCC(C)C

>  <Result>
inactive

$$$$
>  <Molecule>
CNC(=O)Oc1ccccc1C1OCCO1

>  <Result>
inactive

$$$$
>  <Molecule>
CCN(CC)CCOC(=O)C(C)(c1ccccc1)c1ccccc1

>  <Result>
inactive

$$$$

Find outcome (Peroxisome proliferator-activated receptor gamma (Homo sapiens)) for the entry N#CCNCC#N
inactive

Likewise for CN1C(=S)CN=C(c2ccccc2)c2cc(Cl)ccc21 ?
inactive

Likewise for CC1(C)CON(Cc2ccccc2Cl)C1=O ?
inactive

Likewise for CCC/C(=N\OCC)C1=C(O)CC(CC(C)SCC)CC1=O (stereo not drawn) ?
inactive

Likewise for Clc1cccc(N2CCNCC2)c1 ?
inactive

----------
# Assay Comment: A CellTox Green Cytotoxicity Assay to monitor cytotoxicity in HepG2 cells - 0 hour (AID 1224882); also: nearly all actives have a fitted effect of over 35% in size
# Measurement Conditions: CellTox Green fluorescence; series mostly up to 76.8 µM
Activity calls are given as the source filed them. Calls come from the whole dose curve; as a rule, active = well fitted activation curve with a large enough effect in the repeat runs; inconclusive = weak or mixed curves; inactive = flat fitted curve, though single readings scatter.
Observable: outcome

Reference set, count: 10
>  <Compound>
O=C1CN2CCOC2(c2ccccc2Cl)c2cc(Cl)ccc2N1 (configuration not stated)

>  <Observable>
outcome

>  <Result>
inactive

$$$$
>  <Compound>
CCOP(=S)(Oc1cnc(C(C)(C)C)nc1)OC(C)C (configuration not stated)

>  <Observable>
outcome

>  <Result>
inactive

$$$$
>  <Compound>
CCOC(=O)NC(=S)Nc1ccccc1NC(=S)NC(=O)OCC

>  <Observable>
outcome

>  <Result>
inactive

$$$$
>  <Compound>
C1CCC(C2CCCCC2)CC1

>  <Observable>
outcome

>  <Result>
inactive

$$$$
>  <Compound>
CNC(=O)N(C)c1nc2ccccc2s1

>  <Observable>
outcome

>  <Result>
inactive

$$$$
>  <Compound>
CC(=O)C(Cl)Cl

>  <Observable>
outcome

>  <Result>
inactive

$$$$
>  <Compound>
O=[N+]([O-])c1cccc2cccnc12

>  <Observable>
outcome

>  <Result>
inactive

$$$$
>  <Compound>
CC1CCCCC1NC(=O)Nc1ccccc1 (configuration not stated)

>  <Observable>
outcome

>  <Result>
inactive

$$$$
>  <Compound>
CN1CCC(N(Cc2ccccc2)c2ccccc2)CC1

>  <Observable>
outcome

>  <Result>
inactive

$$$$
>  <Compound>
Cc1cc(C)c(C(=O)P(=O)(C(=O)c2c(C)cc(C)cc2C)c2ccccc2)c(C)c1

>  <Observable>
outcome

>  <Result>
inactive

$$$$

For CCOC(=O)C(c1c(O)c2ccccc2oc1=O)c1c(O)c2ccccc2oc1=O , what is its reported outcome?
inactive

Likewise for CC1(C(=O)Nc2ccc(O)c(Cl)c2Cl)CCCCC1 ?
inactive

----------
# Assay Comment: A CellTox Green Cytotoxicity Assay to monitor cytotoxicity in HEK293 cells - 16 hour (AID 1224888); also: nearly all actives have a fitted effect of over 35% in size
# Measurement Conditions: CellTox Green fluorescence; series mostly up to 76.8 µM
Records with an inconclusive call do not appear. The source made the active and inactive calls. Calls come from the whole dose curve; as a rule, active = well fitted activation curve with a large enough effect in the repeat runs; inconclusive = weak or mixed curves; inactive = flat fitted curve, though single readings scatter.
Assign a class; possible classes are active, inactive

>  <Entry Smiles>
N#CCCC#N

>  <Classification>
inactive

$$$$
>  <Entry Smiles>
CCCCc1c(C)nc(NCC)[nH]c1=O

>  <Classification>
inactive

$$$$
>  <Entry Smiles>
Nc1c(Br)cc([N+](=O)[O-])cc1[N+](=O)[O-]

>  <Classification>
inactive

$$$$
>  <Entry Smiles>
CCNc1nc(NC(C)C)nc(OC)n1

>  <Classification>
inactive

$$$$
>  <Entry Smiles>
C#CCN1C(=O)COc2cc(F)c(N3C(=O)C4=C(CCCC4)C3=O)cc21

>  <Classification>
inactive

$$$$

// return assay outcome for O=NN1CCN(N=O)CC1
inactive

Likewise for O=[N+]([O-])c1cc(Cl)c(Cl)c(Cl)c1 ?
active

Likewise for CCOP(=S)(OCC)SCSc1ccc(Cl)cc1 ?
inactive

----------
# Assay Comment: Caspase-3/7 induction in HepG2 cells by small molecules, qHTS cell viability counter screen (AID 1346981); also: nearly all actives have a fitted effect of over 30% in size
# Measurement Conditions: CellTiter-Fluor fluorescence, 17 h; series mostly up to 92.4 µM
Inconclusive results are not listed. Active and inactive are the calls of the source. Calls follow the shape of the dose curve; as a rule, active = well fitted cell-killing curve with a large enough effect in the repeat runs; inconclusive = weak or mixed curves, or effect the other way; inactive = flat fitted curve, though single readings scatter.
Observable: outcome

Reference set, count: 4
>  <Compound>
BrCCCCCCBr

>  <outcome>
inactive

$$$$
>  <Compound>
Fc1ccc(C2(Cn3cncn3)OC2c2ccccc2Cl)cc1 (centres undefined)

>  <outcome>
inactive

$$$$
>  <Compound>
CC1CCCCC1NC(=O)Nc1ccccc1 (centres undefined)

>  <outcome>
inactive

$$$$
>  <Compound>
CCC(=O)c1ccccc1

>  <outcome>
inactive

$$$$

For OC(Cn1cncn1)(c1ccc(F)cc1)c1ccccc1F (centres undefined) , what is its reported outcome?
inactive

Likewise for COc1cc(C[C@@H](C)N)c(OC)cc1C ?
inactive

Likewise for CC(C1CC1)C(O)(Cn1cncn1)c1ccc(Cl)cc1 (centres undefined) ?
inactive

----------
# Experimental Target: Retinoic acid receptor RXR-alpha (Homo sapiens) (UniProt P19793)
# Sequence (P19793 whole entry, looked up): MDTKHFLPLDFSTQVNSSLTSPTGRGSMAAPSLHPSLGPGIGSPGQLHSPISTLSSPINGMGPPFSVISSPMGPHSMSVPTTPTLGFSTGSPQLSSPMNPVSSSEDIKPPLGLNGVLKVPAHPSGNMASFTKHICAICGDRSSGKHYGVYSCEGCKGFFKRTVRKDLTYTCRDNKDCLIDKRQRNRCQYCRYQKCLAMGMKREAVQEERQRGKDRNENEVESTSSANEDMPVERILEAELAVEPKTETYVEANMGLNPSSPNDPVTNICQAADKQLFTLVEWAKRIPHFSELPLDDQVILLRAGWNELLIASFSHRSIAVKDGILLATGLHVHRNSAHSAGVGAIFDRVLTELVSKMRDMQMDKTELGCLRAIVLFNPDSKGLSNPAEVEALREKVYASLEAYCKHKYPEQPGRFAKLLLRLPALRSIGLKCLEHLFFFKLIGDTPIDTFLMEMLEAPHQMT
# Assay Comment: qHTS assay to identify small molecule agonists of the RXR signaling pathway (AID 1159527); also: nearly all actives have a fitted effect of over 35% in size
# Measurement Conditions: HEK293T RXRa-UAS-bla, beta-lactamase ratio, 16 h; series mostly up to 76.8 µM
Results filed as inconclusive are left out. Calls of active or inactive are those of the source. Calls come from the whole dose curve.
Assign a class; possible classes are active, inactive

Check out these entries, answers already filled in.
>  <Molecule>
O=C1OC(=O)C2C1C1(Cl)C(Cl)=C(Cl)C2(Cl)C1(Cl)Cl (stereo not given)

>  <Experimental Target>
Retinoic acid receptor RXR-alpha (Homo sapiens) (UniProt P19793)

>  <Classification>
inactive

$$$$
>  <Molecule>
CCCCOC(=O)c1ccccc1N

>  <Experimental Target>
Retinoic acid receptor RXR-alpha (Homo sapiens) (UniProt P19793)

>  <Classification>
inactive

$$$$
>  <Molecule>
CCC(C)(C)c1cc(-n2nc3ccccc3n2)c(O)c(C(C)(C)CC)c1

>  <Experimental Target>
Retinoic acid receptor RXR-alpha (Homo sapiens) (UniProt P19793)

>  <Classification>
inactive

$$$$
>  <Molecule>
CCOP(=S)(Oc1cnc(C(C)(C)C)nc1)OC(C)C (stereo not given)

>  <Experimental Target>
Retinoic acid receptor RXR-alpha (Homo sapiens) (UniProt P19793)

>  <Classification>
inactive

$$$$
>  <Molecule>
NC(=O)c1cc([N+](=O)[O-])cc([N+](=O)[O-])c1

>  <Experimental Target>
Retinoic acid receptor RXR-alpha (Homo sapiens) (UniProt P19793)

>  <Classification>
inactive

$$$$

Lab note: next molecule to report on.
// return assay outcome for c1cc2c(c(N3CCNCC3)c1)OCCO2
inactive

----------
# Experimental Target: Estrogen receptor (Homo sapiens)
# Assay Comment: qHTS assay to identify small molecule antagonists of the estrogen receptor alpha (ER-alpha) signaling pathway using the BG1 cell line in the presence of 0.1 nM 17-beta-estradiol (AID 1259244); also: nearly all actives have a fitted effect of over 50% in size
# Measurement Conditions: VM7Luc4E2 (BG1) ERE-luciferase, antagonist mode, 0.1 nM E2, 22 h; series mostly up to 92.4 µM
Records with an inconclusive call do not appear. The source made the active and inactive calls. Calls come from the whole dose curve; as a rule, active = well fitted inhibition curve with a large enough effect in the repeat runs; inconclusive = weak or mixed curves; inactive = no such curve, though single readings can be large or run the other way.
Assign a class; possible classes are yes = active, no = inactive

>  <Compound>
Cc1nnc2n1-c1sc(CCC(=O)N3CCOCC3)cc1C(c1ccccc1Cl)=NC2

>  <Classification>
no

$$$$
>  <Compound>
CCOP(=O)(N=C1SCCS1)OCC

>  <Classification>
no

$$$$
>  <Compound>
O=C(N[C@H]1CN2CCC1CC2)c1cc2ccoc2cn1

>  <Classification>
no

$$$$
>  <Compound>
c1cc2c(c(N3CCNCC3)c1)OCCO2

>  <Classification>
no

$$$$

// return assay outcome for COC(=O)C1=CCCN(C)C1
no

Likewise for CCN(CC)C(=O)[C@@H]1C=C2c3cccc4[nH]cc(c34)C[C@H]2N(C)C1 ?
no
